- testDetails: Lipophilicity, log P of the compound
- Format: physicochemical
- measurementConditions: octanol/water
For each entry below, report its logP value.
Answers are plain numbers.

[
  {
    "chemicalStructure": "[2H]C([2H])(N[C@H]1C[S@+]([O-])C[C@@H](Cc2cc(F)c(N)c(O[C@H](COC)C(F)(F)F)c2)[C@@H]1O)c1cccc(C(C)C)c1",
    "measuredNumber": 3.7
  },
  {
    "chemicalStructure": "COC[C@@H](Oc1cc(C[C@@H]2C[S@@+]([O-])C[C@H](NCc3cccc(OC(F)(F)F)c3)[C@H]2O)cc(F)c1N)C(F)(F)F",
    "measuredNumber": 3.7
  }
]

Request: For the compound COC[C@@H](Oc1cc(C[C@@H]2C[S@@+]([O-])C[C@H](NCc3cccc(C(C)C)c3)[C@H]2O)cc(F)c1N)C(F)(F)F , give its measured logP value.
Response: 3.7

====

Provide the reported Papp of each item.
- testDetails: Apparent permeability of the compound in MDCK cells expressing human MDR1
- Format: ADME, cell-based, Canis lupus familiaris
- measurementConditions: dog
Numbers only, in ×10⁻⁶ cm/s.

List Papp for every entry below, keeping the order given.
1. COC[C@@H](Oc1cc(C[C@@H]2C[S@@+]([O-])C[C@H](NCc3cc(C(C)(C)C)ccn3)[C@H]2O)cc(F)c1N)C(F)(F)F
2. CC(C)(C)c1cccc(CN[C@H]2C[S@+]([O-])C[C@@H](Cc3cc(F)c(N)c(OCC(F)(F)F)c3)[C@@H]2O)c1
3. COC[C@@H](Oc1cc(C[C@@H]2C[S@@+]([O-])C[C@H](NCc3cccc(OC(C)C)c3)[C@H]2O)cc(F)c1N)C(F)(F)F
4. CC(C)(C)c1cccc(CN[C@H]2C[S@+]([O-])C[C@@H](Cc3cc(O)c(N)c(F)c3)[C@@H]2O)c1
5. COC[C@@H](Oc1cc(C[C@@H]2C[S@@+]([O-])C[C@H](NCc3cnn(CC(C)(C)C)c3)[C@H]2O)cc(F)c1N)C(F)(F)F

Response:
[19, 19, 21, 9, 10]

Request: Return reported Papp. Input molecule: COC[C@@H](Oc1cc(C[C@@H]2C[S@@+]([O-])C[C@H](NCc3cccc(C(C)(C)CO)c3)[C@H]2O)cc(F)c1N)C(F)(F)F
Response: 10
